The reported numbers originate from ChEMBL document CHEMBL1961873.

Recorded inhibition for the following compounds
- assayed_target: Phosphatidylinositol 4,5-bisphosphate 3-kinase catalytic subunit alpha isoform (Homo sapiens) (UniProt P42336);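 also: values are mean inhibition figures from the GSK PKIS kinase panel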
- Sequence (P42336 whole entry, canonical isoform): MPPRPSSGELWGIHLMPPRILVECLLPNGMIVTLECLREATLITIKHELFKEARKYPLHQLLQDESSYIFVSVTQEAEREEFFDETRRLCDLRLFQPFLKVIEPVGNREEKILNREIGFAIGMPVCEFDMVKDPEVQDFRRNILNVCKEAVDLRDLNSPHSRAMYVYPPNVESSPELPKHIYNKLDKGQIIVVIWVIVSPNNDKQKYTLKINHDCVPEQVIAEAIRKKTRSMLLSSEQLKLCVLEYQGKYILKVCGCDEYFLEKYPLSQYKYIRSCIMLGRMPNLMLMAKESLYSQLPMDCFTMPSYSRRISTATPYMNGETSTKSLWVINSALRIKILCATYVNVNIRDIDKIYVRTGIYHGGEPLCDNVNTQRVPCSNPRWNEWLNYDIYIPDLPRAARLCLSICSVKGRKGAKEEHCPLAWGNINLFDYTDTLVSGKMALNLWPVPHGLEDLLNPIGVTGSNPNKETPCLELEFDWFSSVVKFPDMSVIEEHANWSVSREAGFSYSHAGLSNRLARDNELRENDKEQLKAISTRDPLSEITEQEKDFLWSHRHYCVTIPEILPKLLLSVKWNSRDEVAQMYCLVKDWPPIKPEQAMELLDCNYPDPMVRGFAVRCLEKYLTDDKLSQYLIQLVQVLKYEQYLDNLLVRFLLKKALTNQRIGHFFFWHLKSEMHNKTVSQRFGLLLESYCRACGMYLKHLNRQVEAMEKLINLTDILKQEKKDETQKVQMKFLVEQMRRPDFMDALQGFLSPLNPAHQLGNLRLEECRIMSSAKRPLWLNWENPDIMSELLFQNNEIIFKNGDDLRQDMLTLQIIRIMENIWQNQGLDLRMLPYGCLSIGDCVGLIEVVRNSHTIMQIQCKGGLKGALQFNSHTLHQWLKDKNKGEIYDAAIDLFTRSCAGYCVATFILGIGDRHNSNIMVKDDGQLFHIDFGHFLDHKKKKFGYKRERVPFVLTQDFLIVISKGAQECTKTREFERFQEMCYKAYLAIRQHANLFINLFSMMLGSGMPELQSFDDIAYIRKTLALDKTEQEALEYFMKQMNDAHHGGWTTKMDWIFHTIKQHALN
- condition_context: at 0.1 µM

input_smiles	inhibition, %
O=C(Nc1n[nH]c2cc(-c3cc(F)ccc3F)ccc12)C1CC1	1.92
COc1cc(Nc2ncc3c(C)nc(-c4cccc(Oc5ccccc5)c4)n3n2)cc(OC)c1OC	0.78
c1ccc(-c2n[nH]cc2-c2ccnc(-c3ccc(OCCN4CCOCC4)cc3)c2)nc1	0.37
FC(F)(F)c1cccc(Nc2nccc(-c3cnn4nc(-c5ccccc5)ccc34)n2)c1	2.52
COc1ccc2cc(-c3c(-c4ccncc4)nc(-c4ccc(S(C)(=O)=O)cc4C)n3C)ccc2c1	3.62
C/C(Nc1ccc(S(N)(=O)=O)cc1)=C1/C(=O)Nc2ccccc21	0.42
CN(C)CCCNc1nccc(-c2c(-c3ccc(F)cc3)nn3cc(C(F)(F)F)ccc23)n1	0.79
NC(=O)c1cc(-c2ccncc2)cc(-c2ccccc2)c1N	4.53
CS(=O)(=O)CCNCc1cc(-c2cc3c(Nc4ccc(OCc5cccc(F)c5)c(Cl)c4)ncnc3s2)cs1	4.7
COc1cccc(/C=N/Nc2ncnc3c2cnn3-c2cccc(OC)c2)c1	4.36

====

- assayed_target: Maternal embryonic leucine zipper kinase (Homo sapiens) (UniProt Q14680);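 also: reported figure is the mean percent inhibition of MELK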
- Sequence (Q14680 whole entry, looked up): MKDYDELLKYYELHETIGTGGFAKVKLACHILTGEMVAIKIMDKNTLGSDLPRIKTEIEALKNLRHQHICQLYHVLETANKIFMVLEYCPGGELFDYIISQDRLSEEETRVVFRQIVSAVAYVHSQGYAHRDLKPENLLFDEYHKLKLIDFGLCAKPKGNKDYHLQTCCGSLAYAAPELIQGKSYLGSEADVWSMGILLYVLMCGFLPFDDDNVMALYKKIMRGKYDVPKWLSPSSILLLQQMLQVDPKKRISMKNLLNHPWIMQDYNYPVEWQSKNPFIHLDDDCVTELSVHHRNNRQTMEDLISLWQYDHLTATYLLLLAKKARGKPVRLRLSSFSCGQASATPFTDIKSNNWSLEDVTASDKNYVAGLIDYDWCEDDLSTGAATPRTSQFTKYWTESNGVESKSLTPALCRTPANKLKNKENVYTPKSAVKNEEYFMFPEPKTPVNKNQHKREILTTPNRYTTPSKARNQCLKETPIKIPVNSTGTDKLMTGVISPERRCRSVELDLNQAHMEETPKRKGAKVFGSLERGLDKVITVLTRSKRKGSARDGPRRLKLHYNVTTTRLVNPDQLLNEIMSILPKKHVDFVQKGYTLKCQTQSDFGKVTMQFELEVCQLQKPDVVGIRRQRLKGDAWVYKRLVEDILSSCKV
- condition_context: at 0.1 µM
Listing of entries alongside the reported inhibition.

compound	units_label	inhibition
CS(=O)(=O)CCNCc1ccc(-c2ccc3ncnc(Nc4ccc(OCc5ccccc5)c(Br)c4)c3c2)o1	%	5.3
Clc1ccc(CNc2nccc(-c3cnn4ncccc34)n2)cc1	%	-0.99
NC(=O)c1cc(-c2ccc(F)cc2)cc(-c2ccncc2)c1N	%	2.86
COc1ccc(C2=C(N3CCc4ccccc43)C(=O)NC2=O)cc1	%	4.31
COc1cc(Nc2ncc3c(C)nc(-c4cccc(Oc5ccccc5)c4)n3n2)cc(OC)c1OC	%	3.48
C[C@@H](Oc1cc(-n2cnc3ccc(OC4CCN(C)CC4)cc32)sc1C(N)=O)c1ccccc1Cl	%	6.66
CCC(=O)Nc1ccc(C)c(-c2ccc(C(=O)NCC3CC3)cc2)c1	%	5.17
CCc1ccc(Oc2nccc(-c3c(-c4ccc(F)cc4)ncn3C3CCNCC3)n2)cc1	%	6.32
COc1cc(Nc2ncc3c(C)nc(-c4cccc(C(F)(F)F)c4)n3n2)cc(OC)c1OC	%	13.1
CS(=O)(=O)CCNCc1cc(-c2cc3c(Nc4ccc(OCc5cccc(F)c5)c(Cl)c4)ncnc3s2)cs1	%	5.46
O=C1Nc2ccc(I)cc2C1=Cc1cc(Br)c(O)c(Br)c1	%	2.86
CN(C)CCCNc1nccc(-c2c(-c3ccc(F)cc3)nn3cc(C(F)(F)F)ccc23)n1	%	1.14
COc1cc(Nc2ncc(-c3ccccc3)o2)cc(OC)c1OC	%	-0.49
COc1ccc2cc(-c3c(-c4ccncc4)nc(-c4ccc([S+](C)[O-])cc4C)n3C)ccc2c1 (stereo not given)	%	0.29
COc1cc2ncn(-c3cc(OCCc4ccccc4)c(C(N)=O)s3)c2cc1OC	%	3.07
Fc1ccc(-c2ncn(C3CCNCC3)c2-c2ccnc(Oc3ccc(Oc4ccccc4)cc3)n2)cc1	%	6.35
COC(=O)Nc1nc2ccc(Sc3ccc(NC(=O)Nc4cc(C(F)(F)F)ccc4F)cc3)cc2[nH]1	%	-2.18
COc1cccc(-n2cnc3c(N/N=C/c4ccncc4)ncnc32)c1	%	-1.92
NS(=O)(=O)c1ccc(N/N=C2\C(=O)Nc3ccc(C(=O)NCCCn4ccnc4)cc32)cc1	%	6.78
COc1cccc(/C=N/Nc2ncnc3c2cnn3-c2cccc(OC)c2)c1	%	3.83
NC(=O)c1cc(-c2ccncc2)cc(-c2ccccc2)c1N	%	4.36
NC(=O)Cc1ccccc1Oc1nccc(-c2c(-c3ccc(F)cc3)ncn2C2CCNCC2)n1	%	1.5
CCc1nccc2c1nc(-c1nonc1N)n2CC	%	-0.92
Cc1nnc(-c2ccc(C)c(-c3ccc(C(=O)NCc4ccc(Cl)cc4)cc3)c2)o1	%	4.87
N#Cc1ccc(Oc2nccc(-c3c(-c4ccc(F)cc4)ncn3C3CCNCC3)n2)cc1	%	6.59
Fc1ccc(-c2ncn(CCCN3CCOCC3)c2-c2ccncc2)cc1	%	-0.32
C[C@@H](Oc1cc(-n2cnc3ccc(OCC4CCN(C)CC4)cc32)sc1C(N)=O)c1ccccc1Cl	%	7.59
CN1CCN(CCCNc2nc3ccc(Oc4ccc(NC(=O)Nc5cc(C(F)(F)F)ccc5F)cc4)cc3[nH]2)CC1	%	0.4
CCc1cccc(CC)c1/C=C/c1cncc(C(=O)NC)c1	%	1.61
Cc1ccc(C(=O)NC(C)C)cc1-c1ccc(C(=O)NCC2CC2)cc1	%	-2.85
CCN(CC)Cc1ccc(Nc2nccc(-c3cnn4ncccc34)n2)cc1	%	12.5
NC(=O)c1ccc(Oc2nccc(-c3c(-c4ccc(F)cc4)ncn3C3CCNCC3)n2)cc1	%	7.28
CN(C)c1ccc2c(c1)/C(=C/Nc1ccc(S(N)(=O)=O)cc1)C(=O)N2	%	3.82
CN(C)CCOc1ccc(-c2cc(-c3ccc4c(c3)CCC4=NO)c(-c3ccncc3)o2)cc1	%	-1.71
FC(F)(F)c1cccc(Nc2nccc(-c3cnn4nc(-c5ccccc5)ccc34)n2)c1	%	4.89
O=C1Nc2ccccc2/C1=C/Nc1ccc(-n2cncn2)cc1	%	6.89
Fc1ccc(-c2c(-c3ccncc3)nc3n2CCS3)cc1	%	4.24
C/C(Nc1ccc(S(N)(=O)=O)cc1)=C1/C(=O)Nc2ccccc21	%	2.57
c1ccc(-c2n[nH]cc2-c2ccnc(-c3ccc(OCCN4CCOCC4)cc3)c2)nc1	%	-1.03
NS(=O)(=O)c1ccc(N/N=C2\C(=O)Nc3ccc(-c4cnco4)cc32)cc1	%	5.8
